Test system: KMRC-1 (Kidney Carcinoma)
Test: Bliss excess, mean over the matrix (fraction); higher = more synergy;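 note: after 72 h of two-drug dosing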
RECORDED_ENDPOINT: Bliss excess
Please give the numeric answer without any surrounding text.

Quick one: give measured Bliss excess for N#Cc1cnc(Nc2cc(NC[C@H]3CNCCO3)c(C(F)(F)F)cn2)cn1 [SRA737] + O=c1[nH]cc(F)c(=O)[nH]1 [5-Fluorouracil] (first compound max 10 µM, 7x7, partner max 20 µM)
0.0038

Report Bliss excess for N#Cc1cnc(Nc2cc(NC[C@H]3CNCCO3)c(C(F)(F)F)cn2)cn1 [SRA737] + C=CCn1c(=O)c2cnc(Nc3ccc(N4CCN(C)CC4)cc3)nc2n1-c1cccc(C(C)(C)O)n1 [AZD1775] (first compound max 10 µM, partner max 1 µM)
-0.0048

Return value of Bliss excess for input NC1(C(=O)N[C@@H](CCO)c2ccc(Cl)cc2)CCN(c2ncnc3[nH]ccc23)CC1 [Capivasertib] + C[C@@H]1COCCN1C2=NC(=NC(=C2)C3(CC3)[S@](=N)(=O)C)C4=C5C=CNC5=NC=C4 [AZD6738] (first compound max 10 µM, 7x7, partner max 10 µM) , no commentary.
-0.0504

Provide Bliss excess value for the following molecule: Cc1c2c(nn1C)CSCc1cc(n(C)n1)CSc1cc(c3ccccc3c1)OCCCc1c(C(=O)O)n(C)c3c-2c(Cl)ccc13 [AZD5991] + C[C@@H](Nc1cc(F)cc(F)c1)c1cc(C(=O)N(C)C)cc2c(=O)cc(N3CCOCC3)oc12 [AZD8186] (first compound max 1 µM, 7x7, partner max 3 µM)
-0.0264

----------
Test system: HCC1937 (Breast Carcinoma)
Assay: Bliss excess, mean over the matrix (fraction); higher = more synergy
RECORDED_ENDPOINT: Bliss excess
The answer should be a number; do not append a unit.

Name the recorded Bliss excess of the item C=CCn1c(=O)c2cnc(Nc3ccc(N4CCN(C)CC4)cc3)nc2n1-c1cccc(C(C)(C)O)n1 [AZD1775] + C1CN(CCC1(C(=O)N[C@@H](CCO)C2=CC=C(C=C2)Cl)N)C3=NC=NC4=C3C=CN4 [Capivasertib] (first compound max 3 µM, partner max 3 µM) in your answer.
-0.0385

Output measured Bliss excess for this item: C[C@@H](c1ccc2nccn2c1)n1nnc2ncc(-c3cnn(C)c3)nc21 [Savolitinib] + CC1(C)CCC(CN2CCN(c3ccc(C(=O)NS(=O)(=O)c4ccc(NCC5CCOCC5)c([N+](=O)[O-])c4)c(Oc4cnc5[nH]ccc5c4)c3)CC2)=C(c2ccc(Cl)cc2)C1 [Venetoclax] (first compound max 1 µM, 7x7, partner max 1 µM)
-0.0884

Identify measured Bliss excess corresponding to CC(=O)c1c(C)c2cnc(Nc3ccc(N4CCNCC4)cn3)nc2n(C2CCCC2)c1=O [Palbociclib] + Cc1c2c(nn1C)CSCc1cc(n(C)n1)CSc1cc(c3ccccc3c1)OCCCc1c(C(=O)O)n(C)c3c-2c(Cl)ccc13 [AZD5991] (first compound max 10 µM, 7x7, partner max 1 µM)
-0.0498

Answer with the recorded Bliss excess for the molecule listed here: COc1nnc2ccc(N3CCC(c4ccc(OCCN5CCN(C)C(=O)[C@H]5C)cc4)CC3)nn12 [AZD5153] + C[C@@H]1COCCN1C2=NC(=NC(=C2)C3(CC3)[S@](=N)(=O)C)C4=C5C=CNC5=NC=C4 [AZD6738] (first compound max 1 µM, 7x7, partner max 10 µM)
-0.0516

Consider the molecule COc1cccc(OCCCN)c1-c1cc(Nc2cnc(C#N)cn2)n[nH]1 [Prexasertib] + C[C@@H]1COCCN1C2=NC(=NC(=C2)C3(CC3)[S@](=N)(=O)C)C4=C5C=CNC5=NC=C4 [AZD6738] (first compound max 1 µM, 7x7, partner max 10 µM) and give its recorded Bliss excess.
-0.0129

Tell me its Bliss excess given NC1(C(=O)N[C@@H](CCO)c2ccc(Cl)cc2)CCN(c2ncnc3[nH]ccc23)CC1 [Capivasertib] + CCN(CCO)CCCOc1ccc2c(Nc3cc(CC(=O)Nc4cccc(F)c4)[nH]n3)ncnc2c1 [AZD2811] (first compound max 10 µM, 7x7, partner max 1 µM) as the entry.
0.0005

Give the value of Bliss excess reported for the following: Cc1c2c(nn1C)CSCc1cc(n(C)n1)CSc1cc(c3ccccc3c1)OCCCc1c(C(=O)O)n(C)c3c-2c(Cl)ccc13 [AZD5991] + CCN(CCO)CCCOc1ccc2c(Nc3cc(CC(=O)Nc4cccc(F)c4)[nH]n3)ncnc2c1 [AZD2811] (first compound max 1 µM, 7x7, partner max 1 µM)
-0.0028

Attribution: the supplement of paper PMC11061612
